Target: Angiotensin-converting enzyme (Rattus norvegicus)
Sequence (whole entry): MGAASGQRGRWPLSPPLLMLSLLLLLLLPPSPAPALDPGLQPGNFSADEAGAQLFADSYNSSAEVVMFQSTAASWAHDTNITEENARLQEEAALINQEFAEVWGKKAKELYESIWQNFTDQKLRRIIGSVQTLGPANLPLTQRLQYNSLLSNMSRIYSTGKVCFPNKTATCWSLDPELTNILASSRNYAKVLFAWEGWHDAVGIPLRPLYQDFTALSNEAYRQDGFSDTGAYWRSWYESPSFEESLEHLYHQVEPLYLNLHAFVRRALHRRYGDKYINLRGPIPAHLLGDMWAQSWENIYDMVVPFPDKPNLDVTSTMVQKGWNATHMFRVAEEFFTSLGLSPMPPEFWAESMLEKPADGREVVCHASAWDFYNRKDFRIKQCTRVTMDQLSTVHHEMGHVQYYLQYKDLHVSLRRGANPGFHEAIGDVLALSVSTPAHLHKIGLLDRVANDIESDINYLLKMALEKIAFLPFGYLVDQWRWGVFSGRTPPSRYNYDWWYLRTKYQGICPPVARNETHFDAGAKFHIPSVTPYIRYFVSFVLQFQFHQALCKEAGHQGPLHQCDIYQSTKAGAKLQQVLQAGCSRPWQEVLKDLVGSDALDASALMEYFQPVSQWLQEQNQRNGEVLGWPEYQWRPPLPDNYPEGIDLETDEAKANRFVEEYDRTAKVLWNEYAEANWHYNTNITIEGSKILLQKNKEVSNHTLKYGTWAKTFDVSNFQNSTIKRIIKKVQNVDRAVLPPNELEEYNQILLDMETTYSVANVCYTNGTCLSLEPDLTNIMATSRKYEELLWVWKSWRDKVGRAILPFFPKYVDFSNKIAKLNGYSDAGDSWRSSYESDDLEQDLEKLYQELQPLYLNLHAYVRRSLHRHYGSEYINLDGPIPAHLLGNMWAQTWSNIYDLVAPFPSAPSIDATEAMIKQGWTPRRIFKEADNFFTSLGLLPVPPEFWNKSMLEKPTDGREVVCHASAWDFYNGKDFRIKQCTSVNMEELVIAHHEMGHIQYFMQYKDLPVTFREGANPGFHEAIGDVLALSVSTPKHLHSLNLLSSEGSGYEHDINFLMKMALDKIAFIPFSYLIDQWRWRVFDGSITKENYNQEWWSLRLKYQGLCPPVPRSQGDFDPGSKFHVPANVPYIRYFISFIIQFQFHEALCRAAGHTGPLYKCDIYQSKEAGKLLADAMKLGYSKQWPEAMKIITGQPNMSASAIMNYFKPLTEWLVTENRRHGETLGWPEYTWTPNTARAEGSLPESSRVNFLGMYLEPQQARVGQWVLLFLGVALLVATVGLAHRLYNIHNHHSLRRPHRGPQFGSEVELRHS
Measurement description: Inhibition of Angiotensin I converting enzyme(ACE) at the dose of 100 mg/kg (po) in rat
Type: organism-based
Parameters: dose 100 mg/kg
Result type: ACE inhibition (%)
Respond with the bare value in %.

Entry CCOC(=O)C(CCc1ccccc1)N[C@@H](C)C(=O)N(C1Cc2ccccc2C1)[C@H](CCCCNC(=O)c1ccc(Cl)c(S(N)(=O)=O)c1)C(=O)O.Cl (some centres not stated) has what ACE inhibition?
50

Request the reported ACE inhibition associated with Cl.NS(=O)(=O)c1cc(C(=O)NCCCC[C@H](N[C@@H](CCc2ccccc2)C(=O)O)C(=O)N2CCC[C@H]2C(=O)O)ccc1Cl
100

Field request: ACE inhibition | item: C[C@H](N[C@@H](CCc1ccccc1)C(=O)O)C(=O)N(CC(=O)O)[C@H](C)C1Nc2cc(Cl)c(S(N)(=O)=O)cc2S(=O)(=O)N1 (some centres not stated)
80

Which measured ACE inhibition value corresponds to CCOC(=O)[C@H](CCc1ccccc1)N[C@@H](CCCCNC(=O)c1ccc(Cl)c(S(N)(=O)=O)c1)C(=O)N1CCC[C@H]1C(=O)O.Cl ?
80

Need ACE inhibition, item Cl.NCCCC[C@H](N[C@@H](CCc1ccccc1)C(=O)O)C(=O)N(CC(=O)O)CC1Nc2cc(Cl)c(S(N)(=O)=O)cc2S(=O)(=O)N1 (some centres not stated)
100
